# TARGET_OR_TEST_SYSTEM: UniProt:Q15858
# PROTOCOL_NOTES: Tritiated compound binding to membranes from cells expressing hNav1.7 and the β1 subunit, competitive binding (LBA, Ex. 243A)
# CONDITION_INFO: 100 pM [3H]compound, 18 h, room temperature; read-out: Nav1.7 LBA (Ex. 243A) IC50
# Sequence (Q15858 whole entry, looked up): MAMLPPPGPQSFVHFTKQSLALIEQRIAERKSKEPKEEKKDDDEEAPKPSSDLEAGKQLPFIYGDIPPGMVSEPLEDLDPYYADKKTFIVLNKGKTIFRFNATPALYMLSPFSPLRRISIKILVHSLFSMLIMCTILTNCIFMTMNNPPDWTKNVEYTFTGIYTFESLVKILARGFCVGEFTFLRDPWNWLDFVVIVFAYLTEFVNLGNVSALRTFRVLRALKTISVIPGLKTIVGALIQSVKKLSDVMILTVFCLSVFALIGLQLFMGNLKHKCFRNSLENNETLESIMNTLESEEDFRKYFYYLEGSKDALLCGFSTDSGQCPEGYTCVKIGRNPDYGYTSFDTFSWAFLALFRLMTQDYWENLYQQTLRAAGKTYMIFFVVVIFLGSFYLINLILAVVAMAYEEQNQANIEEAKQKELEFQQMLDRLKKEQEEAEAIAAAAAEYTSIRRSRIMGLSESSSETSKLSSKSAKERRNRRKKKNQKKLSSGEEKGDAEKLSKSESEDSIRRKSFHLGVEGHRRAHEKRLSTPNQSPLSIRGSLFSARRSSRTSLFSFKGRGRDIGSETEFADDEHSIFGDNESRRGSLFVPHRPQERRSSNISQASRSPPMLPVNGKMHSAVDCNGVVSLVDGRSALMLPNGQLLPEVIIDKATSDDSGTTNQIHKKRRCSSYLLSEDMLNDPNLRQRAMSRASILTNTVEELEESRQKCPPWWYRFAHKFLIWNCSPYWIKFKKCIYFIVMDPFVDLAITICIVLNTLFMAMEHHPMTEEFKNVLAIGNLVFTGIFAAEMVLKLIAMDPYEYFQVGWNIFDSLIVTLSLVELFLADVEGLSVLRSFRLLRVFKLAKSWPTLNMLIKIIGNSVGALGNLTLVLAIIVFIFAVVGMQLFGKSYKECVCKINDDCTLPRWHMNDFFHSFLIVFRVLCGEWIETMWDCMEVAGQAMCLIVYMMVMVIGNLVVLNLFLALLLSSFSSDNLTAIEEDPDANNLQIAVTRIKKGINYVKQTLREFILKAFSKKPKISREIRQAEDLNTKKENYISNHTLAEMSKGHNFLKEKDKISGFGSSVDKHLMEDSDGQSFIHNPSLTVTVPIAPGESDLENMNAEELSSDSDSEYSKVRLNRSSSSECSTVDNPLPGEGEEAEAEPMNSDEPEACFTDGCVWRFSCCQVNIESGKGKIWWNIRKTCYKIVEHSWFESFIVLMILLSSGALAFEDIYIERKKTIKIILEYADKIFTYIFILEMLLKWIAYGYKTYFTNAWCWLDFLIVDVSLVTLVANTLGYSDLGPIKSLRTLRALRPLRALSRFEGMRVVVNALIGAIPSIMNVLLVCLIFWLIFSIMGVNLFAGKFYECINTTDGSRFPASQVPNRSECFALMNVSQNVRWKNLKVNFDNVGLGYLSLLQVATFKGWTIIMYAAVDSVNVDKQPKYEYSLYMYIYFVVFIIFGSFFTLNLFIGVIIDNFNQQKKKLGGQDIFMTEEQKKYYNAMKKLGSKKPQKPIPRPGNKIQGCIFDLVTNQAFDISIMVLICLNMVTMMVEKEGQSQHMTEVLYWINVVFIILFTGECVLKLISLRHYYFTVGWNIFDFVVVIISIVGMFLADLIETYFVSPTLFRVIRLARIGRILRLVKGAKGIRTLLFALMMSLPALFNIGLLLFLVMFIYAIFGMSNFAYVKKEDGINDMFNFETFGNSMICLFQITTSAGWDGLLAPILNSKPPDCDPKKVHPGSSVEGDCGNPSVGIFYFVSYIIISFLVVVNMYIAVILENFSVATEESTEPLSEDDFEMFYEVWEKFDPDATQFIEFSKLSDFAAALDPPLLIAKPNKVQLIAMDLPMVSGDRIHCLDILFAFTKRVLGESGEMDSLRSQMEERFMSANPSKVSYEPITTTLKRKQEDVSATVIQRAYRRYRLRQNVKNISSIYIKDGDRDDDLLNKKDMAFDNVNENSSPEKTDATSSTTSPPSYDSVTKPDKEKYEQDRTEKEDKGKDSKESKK
# Sequence (Q07699 whole entry partner, looked up): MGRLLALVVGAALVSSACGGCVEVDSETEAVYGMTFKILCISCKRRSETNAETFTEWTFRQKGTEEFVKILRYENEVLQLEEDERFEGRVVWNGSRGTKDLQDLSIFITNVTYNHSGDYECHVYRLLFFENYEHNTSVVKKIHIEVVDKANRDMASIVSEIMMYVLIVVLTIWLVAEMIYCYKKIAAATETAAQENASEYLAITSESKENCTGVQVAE
Where a name gives a salt, the structure may show the parent alone.
Reported pIC50 values for the following compounds.
// returns pIC50 (minus log10 of molar concentration), number only

# input What value of pIC50 has been reported for the following compound? CN(C)[C@@H]1CC=C(C(F)(F)F)C[C@H]1Nc1cc(F)c(S(=O)(=O)Nc2nccs2)cc1Cl [Example 48, formate]
# output 6.90

New cases:
# input Given the entry CN(C)[C@H]1CCCC[C@@H]1N1CCOc2cc(S(=O)(=O)Nc3nccs3)ccc21 , report its measured pIC50.
# output 7.01

# input Similarly, O=S(=O)(Nc1nccs1)c1cc(Cl)c(N[C@H]2CCCC[C@@H]2N2CCCCC2)cc1F [Example 70, formate] ?
# output 8.46

# input Same for O=S(=O)(Nc1cccc(F)n1)c1cc(Cl)c(N[C@@H]2CCCC[C@H]2N2CCCC2)cc1F
# output 5.52

---

# TARGET_OR_TEST_SYSTEM: hNav1.7 (Homo sapiens (Human))
# PROTOCOL_NOTES: Tritiated compound binding to membranes from cells expressing hNav1.7 and the β1 subunit, competitive binding (LBA, Ex. 243A)
# CONDITION_INFO: 100 pM [3H]compound, 18 h, room temperature; read-out: Nav1.7 LBA (Ex. 243A) IC50
Counter-ions that a name gives are not always drawn.
Below, each entry is listed with its recorded pIC50.
By convention, pIC50 is the negative base-10 log of a molar concentration.

# input Entry CN(C)[C@H]1CC[C@@H](C(F)(F)F)C[C@@H]1Nc1cc(F)c(S(=O)(=O)Nc2nccs2)cc1Cl : reported pIC50 = ?
# output 6.94

# input Now consider Cc1csc(NS(=O)(=O)c2cc(Cl)c(N[C@H]3CCCC[C@@H]3N3CCCC3)cc2F)n1 [Example 92, formate] and answer again.
# output 6.93

# input Thanks! And CN(CC(N)=O)[C@H]1CCCC[C@@H]1Nc1cc(F)c(S(=O)(=O)Nc2nccs2)cc1Cl [Example 79, formate] ?
# output 8.03

# input Follow-up item: CN(C)[C@H]1CCCC[C@@H]1Oc1cc(F)c(S(=O)(=O)Nc2nccs2)cc1C(F)(F)F [Example 78, formate]
# output 7.02

---

# TARGET_OR_TEST_SYSTEM: hNav1.7 (Homo sapiens (Human))
# PROTOCOL_NOTES: Tritiated compound binding to membranes from cells expressing hNav1.7 and the β1 subunit, competitive binding (LBA, Ex. 243A)
# CONDITION_INFO: 100 pM [3H]compound, 18 h, room temperature; read-out: Nav1.7 (LBA) (Ex. 243A)
pIC50 values by entry
Please treat pIC50 as minus the base-10 logarithm of the molar concentration.

In the examples that follow, each entry is paired with its recorded pIC50.
# input State its pIC50 on hNav1.7 (Homo sapiens (Human)): CN(C)[C@H]1CCCC[C@@H]1Nc1cc(F)c(S(=O)(=O)Nc2nccs2)cc1Cl
# output 7.42

# input // repeat for O=S(=O)(Nc1nccs1)c1cc(Cl)c(N[C@H]2CCCC[C@@H]2N2CCC2)cc1F and report
# output 6.67

***
# input Tell me reported pIC50 for CN(C)[C@H]1CC(C(F)(F)F)=CC[C@@H]1Nc1cc(F)c(S(=O)(=O)Nc2nccs2)cc1Cl , tested with hNav1.7 (Homo sapiens (Human)).
# output 8.08

# input And CCN(Cc1ccccc1)[C@H]1CCCC[C@@H]1Nc1cc(F)c(S(=O)(=O)Nc2nccs2)cc1Cl ?
# output 6.00

---

# TARGET_OR_TEST_SYSTEM: hNav1.7 (Homo sapiens (Human), UniProt Q15858)
# PROTOCOL_NOTES: Patch voltage clamp electrophysiology assay (EP), Syncropatch 384PE, CHO cells expressing Nav1.7
# Format: cell-based
# CONDITION_INFO: holding potential -50 mV; […] compound incubation; read-out: EP_SP hNav1.7 (Ex. 243B) IC50
# Procedure: Electrophysiological Assay (EP) (In Vitro Assay) […] For voltage protocol, an holding potential of −50 mV is applied during the whole experiment. […] A second depolarizing step is applied from −150 mV to −10 mV for 10 ms, where currents were measured to derive blocking effects of compounds. Inhibition is determined based on 7.5 min of compound incubation.
# Sequence (Q15858 other isoform, or with tags, fused parts or gaps): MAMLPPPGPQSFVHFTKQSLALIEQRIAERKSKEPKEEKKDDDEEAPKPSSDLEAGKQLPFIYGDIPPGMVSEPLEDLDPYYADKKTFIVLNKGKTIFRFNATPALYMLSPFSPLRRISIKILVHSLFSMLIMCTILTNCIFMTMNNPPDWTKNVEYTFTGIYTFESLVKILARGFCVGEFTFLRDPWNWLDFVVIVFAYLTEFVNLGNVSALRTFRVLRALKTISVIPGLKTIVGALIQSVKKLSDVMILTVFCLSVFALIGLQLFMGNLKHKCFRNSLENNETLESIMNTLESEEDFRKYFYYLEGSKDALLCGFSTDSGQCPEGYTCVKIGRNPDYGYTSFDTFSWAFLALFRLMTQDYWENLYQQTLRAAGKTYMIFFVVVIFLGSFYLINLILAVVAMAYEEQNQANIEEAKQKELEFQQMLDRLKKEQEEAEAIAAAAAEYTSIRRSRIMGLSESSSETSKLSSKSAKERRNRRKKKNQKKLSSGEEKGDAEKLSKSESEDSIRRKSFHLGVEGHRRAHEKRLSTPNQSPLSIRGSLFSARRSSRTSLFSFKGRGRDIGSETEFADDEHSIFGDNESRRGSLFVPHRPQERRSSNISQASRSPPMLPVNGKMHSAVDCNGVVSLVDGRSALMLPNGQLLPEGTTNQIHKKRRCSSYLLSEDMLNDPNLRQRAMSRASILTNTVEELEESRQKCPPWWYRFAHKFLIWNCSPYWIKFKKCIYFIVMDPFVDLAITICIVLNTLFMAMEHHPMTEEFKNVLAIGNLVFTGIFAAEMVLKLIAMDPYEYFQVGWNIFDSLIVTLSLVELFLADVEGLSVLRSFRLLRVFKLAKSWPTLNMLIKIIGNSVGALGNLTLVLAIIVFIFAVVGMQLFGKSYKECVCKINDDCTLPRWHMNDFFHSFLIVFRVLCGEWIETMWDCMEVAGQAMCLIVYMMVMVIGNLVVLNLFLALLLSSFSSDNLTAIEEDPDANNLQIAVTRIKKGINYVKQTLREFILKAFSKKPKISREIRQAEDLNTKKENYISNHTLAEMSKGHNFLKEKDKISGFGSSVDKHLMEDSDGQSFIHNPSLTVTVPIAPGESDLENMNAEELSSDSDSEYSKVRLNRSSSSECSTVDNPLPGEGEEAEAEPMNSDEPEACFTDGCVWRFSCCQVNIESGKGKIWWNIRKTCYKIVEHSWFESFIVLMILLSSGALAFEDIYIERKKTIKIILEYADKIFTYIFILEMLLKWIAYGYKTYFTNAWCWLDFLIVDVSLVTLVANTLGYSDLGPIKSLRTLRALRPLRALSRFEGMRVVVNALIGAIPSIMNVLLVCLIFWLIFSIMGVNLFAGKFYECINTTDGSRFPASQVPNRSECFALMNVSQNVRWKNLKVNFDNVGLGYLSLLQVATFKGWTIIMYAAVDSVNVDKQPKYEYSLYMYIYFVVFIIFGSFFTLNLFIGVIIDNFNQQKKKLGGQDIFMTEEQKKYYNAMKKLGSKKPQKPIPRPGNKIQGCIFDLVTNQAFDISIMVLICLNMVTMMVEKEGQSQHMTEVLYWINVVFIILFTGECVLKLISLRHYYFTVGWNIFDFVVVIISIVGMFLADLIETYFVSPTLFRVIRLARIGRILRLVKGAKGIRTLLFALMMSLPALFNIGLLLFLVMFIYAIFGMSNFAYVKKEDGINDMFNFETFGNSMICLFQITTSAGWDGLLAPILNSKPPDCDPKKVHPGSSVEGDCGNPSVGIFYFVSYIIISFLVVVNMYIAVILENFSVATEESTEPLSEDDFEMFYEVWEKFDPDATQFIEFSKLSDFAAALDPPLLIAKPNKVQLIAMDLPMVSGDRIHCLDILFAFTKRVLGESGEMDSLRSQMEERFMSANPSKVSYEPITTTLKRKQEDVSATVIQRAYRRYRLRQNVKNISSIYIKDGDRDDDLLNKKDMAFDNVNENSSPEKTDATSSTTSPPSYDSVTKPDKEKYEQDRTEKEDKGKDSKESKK
Counter-ions that a name gives are not always drawn.
PARAMETER: IC50 (nM)
# output: bare number, implied unit nM

Worked examples, 3 molecules total:
# input Request the reported IC50 associated with O=S(=O)(Nc1ccncn1)c1cc(Cl)c(N[C@H]2CC[C@H](C(F)(F)F)C[C@@H]2N2CCCCC2)cc1F [Example 206]
# output 8.65

# input Follow-up entry: CN(C)[C@H]1C[C@H](c2cccc(C(F)(F)F)c2)CC[C@@H]1Nc1cc(F)c(S(=O)(=O)Nc2ccncn2)cc1Cl [Example 218]
# output 1.6

# input And for CN1CCN([C@H]2CCCC[C@@H]2Nc2cc(F)c(S(=O)(=O)Nc3nccs3)cc2Cl)CC1 [Example 163] ?
# output 18.1

---
# input Using the record for CN(C)[C@@H]1CC2C(C[C@H]1Nc1cc(F)c(S(=O)(=O)Nc3nccs3)cc1Cl)C2(F)F (stereo in doubt) [Example 210] , report its IC50.
# output 415

# input Same read-out for N#C[C@@H]1CCN([C@H]2CCCC[C@@H]2Nc2cc(F)c(S(=O)(=O)Nc3nccs3)cc2Cl)C1 [Example 161, formate] ?
# output 3.03

# input Same thing, different molecule: CN1CCC[C@@H]1C(=O)N(C)[C@H]1CCCC[C@@H]1Nc1cc(F)c(S(=O)(=O)Nc2nccs2)cc1Cl [Example 204]
# output 20.5

# input Another molecule to look at: CN(C)[C@H]1CN(c2cccc(C(F)(F)F)c2)CC[C@@H]1Nc1cc(F)c(S(=O)(=O)Nc2ccncn2)cc1Cl [Example 233]
# output 1.71

---

# TARGET_OR_TEST_SYSTEM: hNav1.7 (Homo sapiens (Human))
# PROTOCOL_NOTES: Patch voltage clamp electrophysiology assay (EP), Syncropatch 384PE, CHO cells expressing Nav1.7
# Assay type: cell-based
# CONDITION_INFO: holding potential -50 mV; […] compound incubation; read-out: EP_SP hNav1.7 (Ex. 243B) IC50
IC50 by entry:
Please give a number only; it is taken to be in µM.

Take a look at these entries with their results.
# input Fill in the recorded IC50 for this compound, with hNav1.7 (Homo sapiens (Human)) as test system: O=S(=O)(Nc1ccncn1)c1cc(Cl)c(N[C@@H]2CCCC[C@H]2N2CC3CC3C2)cc1F (stereo partly drawn)
# output 1.68

# input Would you mind doing CN(C[C@@H](O)C1CC1)[C@H]1CCCC[C@@H]1Nc1cc(F)c(S(=O)(=O)Nc2nccs2)cc1Cl as well?
# output 0.0456

Now let's try a different one.
# input For hNav1.7 (Homo sapiens (Human)), provide IC50 of Cc1csc(NS(=O)(=O)c2cc(Cl)c(N[C@H]3CCCC[C@@H]3N(C)CCO)cc2F)n1 please.
# output 0.0234

---

Catalogue of molecules with associated pIC50
# TARGET_OR_TEST_SYSTEM: UniProtKB Q15858
# PROTOCOL_NOTES: Patch voltage clamp electrophysiology assay (EP), Syncropatch 384PE, CHO cells expressing Nav1.7
# Type: cell-based
# CONDITION_INFO: holding potential -50 mV; […] compound incubation; read-out: EP_SP hNav1.7 (Ex. 243B) IC50
Counter-ions that a name gives are not always drawn.
The quantity pIC50 is defined as the negative base-10 logarithm of the molar concentration.

Worked cases, pIC50 given:
# input // returns reported pIC50 for input CN1CC(N(C)[C@H]2CCCC[C@@H]2Nc2cc(F)c(S(=O)(=O)Nc3nccs3)cc2Cl)C1 [Example 41, formate]
# output 8.47

# input One more molecule: CN(CCCF)[C@H]1CCCC[C@@H]1Nc1cc(F)c(S(=O)(=O)Nc2nccs2)cc1Cl
# output 7.48

Continuing:
# input Endpoint output: pIC50 of CN(C)[C@@H]1CCCCC[C@H]1Nc1cc(F)c(S(=O)(=O)Nc2nccs2)cc1Cl [Example 145, formate] . Value?
# output 6.40

---

# TARGET_OR_TEST_SYSTEM: hNav1.7 (Homo sapiens (Human), UniProt Q15858)
# PROTOCOL_NOTES: Patch voltage clamp electrophysiology assay (EP), Syncropatch 384PE, CHO cells expressing Nav1.7
# Assay type: cell-based
# CONDITION_INFO: holding potential -50 mV; […] compound incubation; read-out: EP_SP hNav1.7 (Ex. 243B) IC50
pIC50: −log10 of the molar value. Where a name gives a salt, the structure may show the parent alone.
Where pIC50 equals or exceeds 8, the correct label is 1; where it does not, the label is -1.

# input Is it the case that O=S(=O)(Nc1cccc(F)n1)c1cc(Cl)c(N[C@@H]2CCCC[C@H]2N2CCCCC2)cc1F [Example 117] has pIC50 reaching or exceeding 8?
# output -1

# input Note, next up: CN(C)[C@H]1CCCC[C@@H]1Oc1cc(F)c(S(=O)(=O)Nc2cccc(F)n2)cc1C1CC1 [Example 114, formate]
# output -1
